Applied conditions: in n-propanol, 293.15 K
Quantity: solubility (mole fraction)
Just the number, please, no unit after it.

Task item: Provide one value: measured solubility (mole fraction) of O=C(Nc1ccccc1)c1ccccc1O
Reply: 0.0199

====

Applied conditions: in isopropanol, 308.15 K
Quantity: solubility (mole fraction)
Just the number, please, no unit after it.

Task item: Provide one value: measured solubility (mole fraction) of O=C(Nc1ccccc1)c1ccccc1O
Reply: 0.036

====

Applied conditions: in n-propyl acetate, 303.15 K
Quantity: solubility (mole fraction)
Just the number, please, no unit after it.

Task item: Provide one value: measured solubility (mole fraction) of O=C(Nc1ccccc1)c1ccccc1O
Reply: 0.0483

====

Applied conditions: in ethyl formate, 298.15 K
Quantity: solubility (mole fraction)
Just the number, please, no unit after it.

Task item: Provide one value: measured solubility (mole fraction) of O=C(Nc1ccccc1)c1ccccc1O
Reply: 0.0293

====

Applied conditions: in ethyl formate, 308.15 K
Quantity: solubility (mole fraction)
Just the number, please, no unit after it.

Task item: Provide one value: measured solubility (mole fraction) of O=C(Nc1ccccc1)c1ccccc1O
Reply: 0.041

====

Applied conditions: in ethyl acetate, 323.15 K
Quantity: solubility (mole fraction)
Just the number, please, no unit after it.

Task item: Provide one value: measured solubility (mole fraction) of O=C(Nc1ccccc1)c1ccccc1O
Reply: 0.0892

====

Applied conditions: in ethanol, 293.15 K
Quantity: solubility (mole fraction)

Task item: Provide one value: measured solubility (mole fraction) of O=C(Nc1ccccc1)c1ccccc1O
Reply: 0.0235

====

Applied conditions: in ethanol, 323.15 K
Quantity: solubility (mole fraction)

Task item: Provide one value: measured solubility (mole fraction) of O=C(Nc1ccccc1)c1ccccc1O
Reply: 0.0572

====

Applied conditions: in ethyl acetate, 303.15 K
Quantity: solubility (mole fraction)
Just the number, please, no unit after it.

Task item: Provide one value: measured solubility (mole fraction) of O=C(Nc1ccccc1)c1ccccc1O
Reply: 0.0554

====

Applied conditions: in isopropyl acetate, 298.15 K
Quantity: solubility (mole fraction)
Just the number, please, no unit after it.

Task item: Provide one value: measured solubility (mole fraction) of O=C(Nc1ccccc1)c1ccccc1O
Reply: 0.0389

====

Applied conditions: in ethyl formate, 323.15 K
Quantity: solubility (mole fraction)

Task item: Provide one value: measured solubility (mole fraction) of O=C(Nc1ccccc1)c1ccccc1O
Reply: 0.0681

====

Applied conditions: in ethanol, 313.15 K
Quantity: solubility (mole fraction)
Just the number, please, no unit after it.

Task item: Provide one value: measured solubility (mole fraction) of O=C(Nc1ccccc1)c1ccccc1O
Reply: 0.0425

====

Applied conditions: in n-pentanol, 308.15 K
Quantity: solubility (mole fraction)
Just the number, please, no unit after it.

Task item: Provide one value: measured solubility (mole fraction) of O=C(Nc1ccccc1)c1ccccc1O
Reply: 0.0281

====

Applied conditions: in acetonitrile, 318.15 K
Quantity: solubility (mole fraction)
Just the number, please, no unit after it.

Task item: Provide one value: measured solubility (mole fraction) of O=C(Nc1ccccc1)c1ccccc1O
Reply: 0.0423

====

Applied conditions: in methyl acetate, 288.15 K
Quantity: solubility (mole fraction)
Just the number, please, no unit after it.

Task item: Provide one value: measured solubility (mole fraction) of O=C(Nc1ccccc1)c1ccccc1O
Reply: 0.0408

====

Applied conditions: in acetonitrile, 283.15 K
Quantity: solubility (mole fraction)
Just the number, please, no unit after it.

Task item: Provide one value: measured solubility (mole fraction) of O=C(Nc1ccccc1)c1ccccc1O
Reply: 0.0129

====

Applied conditions: in isopropyl acetate, 293.15 K
Quantity: solubility (mole fraction)
Just the number, please, no unit after it.

Task item: Provide one value: measured solubility (mole fraction) of O=C(Nc1ccccc1)c1ccccc1O
Reply: 0.0352

====

Applied conditions: in n-propanol, 298.15 K
Quantity: solubility (mole fraction)
Just the number, please, no unit after it.

Task item: Provide one value: measured solubility (mole fraction) of O=C(Nc1ccccc1)c1ccccc1O
Reply: 0.0229

====

Applied conditions: in acetonitrile, 303.15 K
Quantity: solubility (mole fraction)
Just the number, please, no unit after it.

Task item: Provide one value: measured solubility (mole fraction) of O=C(Nc1ccccc1)c1ccccc1O
Reply: 0.0258

====

Applied conditions: in methyl acetate, 293.15 K
Quantity: solubility (mole fraction)
Just the number, please, no unit after it.

Task item: Provide one value: measured solubility (mole fraction) of O=C(Nc1ccccc1)c1ccccc1O
Reply: 0.0443

====

Applied conditions: in n-butyl acetate, 323.15 K
Quantity: solubility (mole fraction)
Just the number, please, no unit after it.

Task item: Provide one value: measured solubility (mole fraction) of O=C(Nc1ccccc1)c1ccccc1O
Reply: 0.0686

====

Applied conditions: in isopropanol, 298.15 K
Quantity: solubility (mole fraction)
Just the number, please, no unit after it.

Task item: Provide one value: measured solubility (mole fraction) of O=C(Nc1ccccc1)c1ccccc1O
Reply: 0.0265

====

Applied conditions: in ethanol, 283.15 K
Quantity: solubility (mole fraction)

Task item: Provide one value: measured solubility (mole fraction) of O=C(Nc1ccccc1)c1ccccc1O
Reply: 0.0185

====

Applied conditions: in ethyl formate, 288.15 K
Quantity: solubility (mole fraction)
Just the number, please, no unit after it.

Task item: Provide one value: measured solubility (mole fraction) of O=C(Nc1ccccc1)c1ccccc1O
Reply: 0.0219

====

Applied conditions: in n-butyl acetate, 298.15 K
Quantity: solubility (mole fraction)
Just the number, please, no unit after it.

Task item: Provide one value: measured solubility (mole fraction) of O=C(Nc1ccccc1)c1ccccc1O
Reply: 0.0388

====

Applied conditions: in n-butyl acetate, 283.15 K
Quantity: solubility (mole fraction)
Just the number, please, no unit after it.

Task item: Provide one value: measured solubility (mole fraction) of O=C(Nc1ccccc1)c1ccccc1O
Reply: 0.028

====

Applied conditions: in n-butyl acetate, 313.15 K
Quantity: solubility (mole fraction)
Just the number, please, no unit after it.

Task item: Provide one value: measured solubility (mole fraction) of O=C(Nc1ccccc1)c1ccccc1O
Reply: 0.0545

====

Applied conditions: in methyl acetate, 308.15 K
Quantity: solubility (mole fraction)
Just the number, please, no unit after it.

Task item: Provide one value: measured solubility (mole fraction) of O=C(Nc1ccccc1)c1ccccc1O
Reply: 0.0658

====

Applied conditions: in isopropanol, 323.15 K
Quantity: solubility (mole fraction)
Just the number, please, no unit after it.

Task item: Provide one value: measured solubility (mole fraction) of O=C(Nc1ccccc1)c1ccccc1O
Reply: 0.053

====

Applied conditions: in methyl acetate, 283.15 K
Quantity: solubility (mole fraction)
Just the number, please, no unit after it.

Task item: Provide one value: measured solubility (mole fraction) of O=C(Nc1ccccc1)c1ccccc1O
Reply: 0.0366

====

Applied conditions: in n-butanol, 288.15 K
Quantity: solubility (mole fraction)
Just the number, please, no unit after it.

Task item: Provide one value: measured solubility (mole fraction) of O=C(Nc1ccccc1)c1ccccc1O
Reply: 0.0155

====

Applied conditions: in n-pentanol, 323.15 K
Quantity: solubility (mole fraction)
Just the number, please, no unit after it.

Task item: Provide one value: measured solubility (mole fraction) of O=C(Nc1ccccc1)c1ccccc1O
Reply: 0.0459

====

Applied conditions: in n-propyl acetate, 298.15 K
Quantity: solubility (mole fraction)
Just the number, please, no unit after it.

Task item: Provide one value: measured solubility (mole fraction) of O=C(Nc1ccccc1)c1ccccc1O
Reply: 0.0435

====

Applied conditions: in n-propanol, 318.15 K
Quantity: solubility (mole fraction)
Just the number, please, no unit after it.

Task item: Provide one value: measured solubility (mole fraction) of O=C(Nc1ccccc1)c1ccccc1O
Reply: 0.0418

====

Applied conditions: in n-propyl acetate, 313.15 K
Quantity: solubility (mole fraction)
Just the number, please, no unit after it.

Task item: Provide one value: measured solubility (mole fraction) of O=C(Nc1ccccc1)c1ccccc1O
Reply: 0.0616

====

Applied conditions: in ethyl formate, 318.15 K
Quantity: solubility (mole fraction)
Just the number, please, no unit after it.

Task item: Provide one value: measured solubility (mole fraction) of O=C(Nc1ccccc1)c1ccccc1O
Reply: 0.0585

====

Applied conditions: in n-pentanol, 298.15 K
Quantity: solubility (mole fraction)
Just the number, please, no unit after it.

Task item: Provide one value: measured solubility (mole fraction) of O=C(Nc1ccccc1)c1ccccc1O
Reply: 0.0206

====

Applied conditions: in ethyl formate, 293.15 K
Quantity: solubility (mole fraction)

Task item: Provide one value: measured solubility (mole fraction) of O=C(Nc1ccccc1)c1ccccc1O
Reply: 0.0248

====

Applied conditions: in n-propyl acetate, 318.15 K
Quantity: solubility (mole fraction)
Just the number, please, no unit after it.

Task item: Provide one value: measured solubility (mole fraction) of O=C(Nc1ccccc1)c1ccccc1O
Reply: 0.0703

====

Applied conditions: in n-butyl acetate, 308.15 K
Quantity: solubility (mole fraction)
Just the number, please, no unit after it.

Task item: Provide one value: measured solubility (mole fraction) of O=C(Nc1ccccc1)c1ccccc1O
Reply: 0.049
